meta.source: patent US20250289848A1

Item-by-item account of pIC50
- System: HCT116 cells
- assay_remarks: MTS cell viability assay, HCT116
- Assay type: cell-based
- measurement_setup: Homo sapiens, HCT-116, 72 h; read-out: MTs IC50 ± SD HCT116
pIC50: −log10 of the molar value.
observed_property: pIC50

NC(=O)CC[C@H](NC(=O)[C@H](Cc1nn[nH]n1)NC(=O)[C@H](Cc1ccc2ccccc2c1)NC(=O)c1cc2cc(Cl)ccc2[nH]1)C(=O)Nc1ccc(OC(F)(F)F)cc1    4.19
CCOC(=O)CC[C@H](NC(=O)[C@H](Cc1nn[nH]n1)NC(=O)[C@H](Cc1ccc2ccccc2c1)NC(=O)c1cc2cc(Cl)ccc2[nH]1)C(=O)Nc1ccc(OC(F)(F)F)cc1    4.16
